Biological target: T1, 4H568-AA
T1 chain: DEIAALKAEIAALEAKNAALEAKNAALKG
Test: two-hybrid library CCmax;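 note: natural log of median RNA to DNA barcode read ratio; higher means stronger binding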
Settings: mean of both orientations
For each record, check the reported interaction score: if it is below -1 write true, else write false.

> print(dat)
                                     binder  qualitative.label
1  DENAALKAKIAALEAKNAALEAKIAALEG [4H1845-AA]               true
2  DKNAALEAKIAALKAKIAALEAENAALEG [4H3427-AA]              false

QUERY: hey, is interaction score for DKNAALKAKIAALEAEIAALKAKNAALEG [4H3855-AA] lower than -1 or not?
RESULT: true

QUERY: hey, is interaction score for DKNAALEAEIAALEAKIAALEAKNAALKG [4H3112-AA] lower than -1 or not?
RESULT: false

QUERY: hey, is interaction score for DKNAALKAENAALKAEIAALEAKIAALKG [4H3782-AA] lower than -1 or not?
RESULT: true

QUERY: hey, is interaction score for DKNAALEAKIAALEAENAALKAEIAALKG [4H3354-AA] lower than -1 or not?
RESULT: true

QUERY: hey, is interaction score for DENAALEAENAALKAKIAALKAEIAALEG [4H1257-AA] lower than -1 or not?
RESULT: false

QUERY: hey, is interaction score for DENAALEAKNAALEAKIAALEAKIAALKG [4H1446-AA] lower than -1 or not?
RESULT: true

QUERY: hey, is interaction score for DKNAALKAKNAALEAKIAALEAEIAALEG [4H4001-AA] lower than -1 or not?
RESULT: true

QUERY: hey, is interaction score for DKIAALEAKNAALEAEIAALKAEIAALKG [4H2442-AA] lower than -1 or not?
RESULT: true
